Source of measurements: ChEMBL document CHEMBL1770090

Procedure text: Cytotoxicity against mouse EAC cells assessed as cell viability using trypan blue staining after 2 hrs by hemocytometer analysis
Format: functional, cell-based
Assay conditions: Ehrlich
Can you tell me IC50 for the items I'm about to list?
Please respond with the number in mg/L and leave the unit unwritten.

Q: What value of measured IC50 is listed for O=c1[nH]cc(F)c(=O)[nH]1 ?
Result: 1.5

Q: What value of measured IC50 is listed for C/C(=N\N=C1\NC(=O)/C(=C/c2cn(-c3ccccc3)nc2-c2cccs2)S1)c1nc(-c2ccccc2)[nH]c1C ?
Result: 8.25

Q: What value of measured IC50 is listed for C/C(=N\NC(=O)/C(C#N)=C\c1cn(-c2ccccc2)nc1-c1cccs1)c1nc(-c2ccccc2)[nH]c1C ?
Result: 125

Q: What value of measured IC50 is listed for C/C(=N\N=C1\N=C(c2ccccc2)CS1)c1nc(-c2ccccc2)[nH]c1C ?
Result: 19.5

Q: What value of measured IC50 is listed for C/C(=N/NC(=O)c1cc2ccc(O)cc2oc1=N)c1nc(-c2ccccc2)[nH]c1C ?
Result: 150

Q: What value of measured IC50 is listed for C/C(=N\NC(=O)/C(C#N)=C\c1ccc(F)cc1)c1nc(-c2ccccc2)[nH]c1C ?
Result: 85.2

Q: What value of measured IC50 is listed for C/C(=N\NC(N)=S)c1nc(-c2ccccc2)[nH]c1C ?
Result: 4.18
